Molecular target: A1PI (Homo sapiens, UniProt P01009)
Construct: Human plasma is currently the only approved source of therapeutic AlPI
Sequence (P01009 25-418): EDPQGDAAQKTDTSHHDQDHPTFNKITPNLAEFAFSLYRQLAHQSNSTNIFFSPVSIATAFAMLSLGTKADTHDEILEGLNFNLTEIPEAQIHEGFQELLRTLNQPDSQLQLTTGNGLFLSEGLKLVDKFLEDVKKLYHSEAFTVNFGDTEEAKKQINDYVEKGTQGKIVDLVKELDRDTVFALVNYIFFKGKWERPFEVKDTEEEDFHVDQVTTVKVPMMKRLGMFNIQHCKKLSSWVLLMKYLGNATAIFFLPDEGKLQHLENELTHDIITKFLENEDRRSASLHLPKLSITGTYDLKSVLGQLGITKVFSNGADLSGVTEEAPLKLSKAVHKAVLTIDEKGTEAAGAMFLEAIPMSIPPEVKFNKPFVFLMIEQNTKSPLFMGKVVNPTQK
Experiment: A1PI binding on peptide-resin column, injection of 1 mg A1PI in equilibration buffer
Settings: VIWLVR N-terminal point mutations; 1 mg A1PI, 4° C.
Ends that are not written are not given here.
quantity-kind: % of Total A1PI Eluted by Fraction (Based on Absorbance at 280 nm), 2% Acetic Acid (%)

I: HHWLVR: point mutation of VIWLVR on Ala-Totda-Toyopearl (not fully specified (C-terminus))
II: HNWLVR: point mutation of VIWLVR on Ala-Totda-Toyopearl (not fully specified (C-terminus))
III: DNWLVR: point mutation of VIWLVR on Ala-Totda-Toyopearl (not fully specified (C-terminus))
IV: DSWLVR: point mutation of VIWLVR on Ala-Totda-Toyopearl (not fully specified (C-terminus))
Incoming: Order these substances (above) by their % of Total A1PI Eluted by Fraction (Based on Absorbance at 280 nm), 2% Acetic Acid, from the smallest value upward. Provide the ranking by listing each label in its place in the requested order.
Outgoing: IV, III, II, I
(IV: 0%, III: 1%, II: 8%, I: 14%)

###

Target: A1PI (Homo sapiens)
Construct: Human plasma is currently the only approved source of therapeutic AlPI
Assay: A1PI binding on peptide-resin column, injection of 1 mg A1PI in equilibration buffer
Settings: VIFLVR point mutations; 1 mg A1PI, 4° C.
quantity-kind: % of Total A1PI Eluted by Fraction (Based on Absorbance at 280 nm), Flowthrough (%)

{"substance": "V K F L V R: point mutation of VIFLVR, position 2 (VKFLVR)", "reading": 0}

P: S I F L V R: point mutation of VIFLVR, position 1 (SIFLVR)
Q: V I F L F R: point mutation of VIFLVR, position 5 (VIFLFR)
Incoming: Which of these two has the smaller recorded % of Total A1PI Eluted by Fraction (Based on Absorbance at 280 nm), Flowthrough: P or Q ? Indicate which entry you chose by stating its label.
Outgoing: P

###

Molecular target: apolipoprotein alpha-1 (Apo A-1) (Homo sapiens)
Construct: Eff; II+III is a process intermediate in the Cohn plasma fractionation process; tissue Bayer Corporation (Clayton, N.C.); host or cells: plasma fraction: Cohn Effluent II+III
Sequence (P02647 19-267): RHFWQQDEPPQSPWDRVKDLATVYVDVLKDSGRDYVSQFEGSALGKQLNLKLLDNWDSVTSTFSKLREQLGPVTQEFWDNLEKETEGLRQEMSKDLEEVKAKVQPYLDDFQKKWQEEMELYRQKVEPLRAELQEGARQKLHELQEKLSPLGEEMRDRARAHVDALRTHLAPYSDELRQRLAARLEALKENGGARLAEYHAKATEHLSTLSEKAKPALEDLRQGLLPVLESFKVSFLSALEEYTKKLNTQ
Experiment: Purification from Effluent II+III, Apo A-1 mass balance
Assay type: binding
Details: 1 ml Eff. II+III, 4° C.
Procedure: Sequences 1-11 and 15 were assayed with Effluent II+III (Eff. II+III). Eff. II+III is a process intermediate in the Cohn plasma fractionation process. The feed stream contains 20% (by volume) ethanol, 20-25 mg/ml hSA and approximately 1 mg/ml AlPI. […]
Ends that are not written are not given here.
quantity-kind: Percent Eluted by Fraction, 2% Acetic Acid (%)

I: LIVHRW
II: RLWRYG
Incoming: Which of these two has the smaller recorded Percent Eluted by Fraction, 2% Acetic Acid: I or II ? Indicate which entry you chose by stating its label.
Outgoing: I
(I: 51%, II: 100%)

a: VIWLVR
b: QYHFWY
c: IIWLYK
Incoming: Please rank these substances by Percent Eluted by Fraction, 2% Acetic Acid in descending order. Provide the ranking by listing each label in its place in the requested order.
Outgoing: c, a, b
(c: 100%, a: 48%, b: 0%)

P: RFIYYT
Q: PYWIVR
Incoming: Given the listed records, identify the one among P and Q with higher Percent Eluted by Fraction, 2% Acetic Acid. Indicate which entry you chose by stating its label.
Outgoing: P
(P: 100%, Q: 0%)

###

Biological target: A1PI (Homo sapiens)
Construct: Human plasma is currently the only approved source of therapeutic AlPI
Assay: A1PI binding on peptide-resin column, injection of 1 mg A1PI in equilibration buffer
Settings: VIFLVR point mutations; 1 mg A1PI, 20° C.
Ends that are not written are not given here.
quantity-kind: % of Total A1PI Eluted by Fraction (Based on Absorbance at 280 nm), 1M NaCl (%)

Illustrative cases are given below, each with its answer.
{"substance": "VIFLVR", "test-target": "A1PI (Homo sapiens)", "unit-spec": "%", "reading": 8}
{"substance": "V A F L V R: point mutation of VIFLVR, position 2 (VAFLVR)", "test-target": "A1PI (Homo sapiens)", "unit-spec": "%", "reading": 8}
{"substance": "Ac-V I F L V R: N-terminal acetylated sequence Ac-VIFLVR (listed under SEQ ID No:37) (not fully specified (C-terminus); printed as Ac-VIFLVR)", "test-target": "A1PI (Homo sapiens)", "unit-spec": "%", "reading": 0}
{"substance": "D I F L V R: point mutation of VIFLVR, position 1 (DIFLVR)", "test-target": "A1PI (Homo sapiens)", "unit-spec": "%", "reading": 9}
{"substance": "V I F A V R: point mutation of VIFLVR, position 4 (VIFAVR)", "test-target": "A1PI (Homo sapiens)", "unit-spec": "%", "reading": 11}
{"substance": "V I F L A R: point mutation of VIFLVR, position 5 (VIFLAR)", "test-target": "A1PI (Homo sapiens)", "unit-spec": "%", "reading": 0}

1: A I F L V R: point mutation of VIFLVR, position 1 (AIFLVR)
2: H I F L V R: point mutation of VIFLVR, position 1 (HIFLVR)
3: K I F L V R: point mutation of VIFLVR, position 1 (KIFLVR)
Incoming: Provide the items ranked by increasing % of Total A1PI Eluted by Fraction (Based on Absorbance at 280 nm), 1M NaCl. Provide the ranking by listing each label in its place in the requested order.
Outgoing: 3, 1, 2

1: V I F L Y R: point mutation of VIFLVR, position 5 (VIFLYR)
2: VIFLVA: point mutation of VIFLVR, position 6, C-terminal Arg replaced with Ala
3: S I F L V R: point mutation of VIFLVR, position 1 (SIFLVR)
4: V K F L V R: point mutation of VIFLVR, position 2 (VKFLVR)
Incoming: Provide the items ranked by increasing % of Total A1PI Eluted by Fraction (Based on Absorbance at 280 nm), 1M NaCl. Provide the ranking by listing each label in its place in the requested order.
Outgoing: 2, 1, 3, 4

###

System: Immunoglobulin G (IgG)
Assay: Purification from Effluent II+III, IgG mass balance
Assay type: binding, human
Settings: 1 ml Eff. II+III, 4° C.
Ends that are not written are not given here.
# Percent Eluted by Fraction, 2% Acetic Acid listing for each entry below
Give the number; % is assumed, so skip it.

{"substance": "PYWIVR", "reading": 0}

Please examine the following record next.
Incoming: Complete the entry with Percent Eluted by Fraction, 2% Acetic Acid for RLWRYG
Outgoing: 0

###

Biological target: A1PI (Homo sapiens)
Construct: Human plasma is currently the only approved source of therapeutic AlPI
Assay: A1PI purification from 5 mg hSA + 1 mg A1PI on peptide column, A1PI mass balance
Assay type: binding
Settings: A1PI; 5 mg hSA + 1 mg A1PI, 4° C.; relative to total eluted
Ends that are not written are not given here.
quantity-kind: Percent Eluted by Fraction, Flow (%)

{"substance": "ARWYIH", "test-target": "A1PI (Homo sapiens)", "Percent Eluted by Fraction, Flow (%)": 0}
{"substance": "WKLWRW", "test-target": "A1PI (Homo sapiens)", "Percent Eluted by Fraction, Flow (%)": 25}
{"substance": "PYWIVR", "test-target": "A1PI (Homo sapiens)", "Percent Eluted by Fraction, Flow (%)": 27}
{"substance": "RAFWYI", "test-target": "A1PI (Homo sapiens)", "Percent Eluted by Fraction, Flow (%)": 29}
{"substance": "RYRIFI", "test-target": "A1PI (Homo sapiens)", "Percent Eluted by Fraction, Flow (%)": 0}

P: YKFRFW
Q: RFIYYT
Incoming: Which of these two has the smaller recorded Percent Eluted by Fraction, Flow: P or Q ? Indicate which entry you chose by stating its label.
Outgoing: P

###

Biological target: A1PI (Homo sapiens, UniProt P01009)
Construct: Human plasma is currently the only approved source of therapeutic AlPI
Experiment: A1PI binding on peptide-resin column, injection of 1 mg A1PI in equilibration buffer
Details: VIWLVR N-terminal point mutations; 1 mg A1PI, 4° C.
Ends that are not written are not given here.
quantity-kind: % of Total A1PI Eluted by Fraction (Based on Absorbance at 280 nm), 2% Acetic Acid (%)

Illustrative cases are given below, each with its answer.
{"substance": "HSWLVR: point mutation of VIWLVR on Ala-Totda-Toyopearl (not fully specified (C-terminus))", "test-target": "A1PI (Homo sapiens, UniProt P01009)", "reading": 11}
{"substance": "NSWLVR: point mutation of VIWLVR on Ala-Totda-Toyopearl (not fully specified (C-terminus))", "test-target": "A1PI (Homo sapiens, UniProt P01009)", "reading": 5}
{"substance": "DHWLVR: point mutation of VIWLVR on Ala-Totda-Toyopearl (not fully specified (C-terminus))", "test-target": "A1PI (Homo sapiens, UniProt P01009)", "reading": 10}

A: SHWLVR: point mutation of VIWLVR on Ala-Totda-Toyopearl (not fully specified (C-terminus))
B: SSWLVR: point mutation of VIWLVR on Ala-Totda-Toyopearl (not fully specified (C-terminus))
C: NDWLVR: point mutation of VIWLVR on Ala-Totda-Toyopearl (not fully specified (C-terminus))
D: DDWLVR: point mutation of VIWLVR on Ala-Totda-Toyopearl (not fully specified (C-terminus))
Incoming: Provide the items ranked by increasing % of Total A1PI Eluted by Fraction (Based on Absorbance at 280 nm), 2% Acetic Acid. Provide the ranking by listing each label in its place in the requested order.
Outgoing: C, D, B, A
(C: 0%, D: 1%, B: 6%, A: 13%)

The measurements presented in this section are drawn from patent US5985836A.
